The reported measurements were obtained from patent US9199941B2.

Field: chromatographic logP. Provide a value for each of the molecules that follow.
Assay: log P by HPLC on reversed phase columns (EEC directive 79/831 Annex V.A8)
Format: physicochemical
Settings: pH 2.7

Prompt: Would you mind telling me what chromatographic logP value was observed for Cc1nn(C)c(C)c1C(=O)Nc1cccc2c1C(C)CC21CC1 (centres unmarked) ?
Completion: 2.7

Prompt: # repeat for Cc1nn(C)c(C)c1C(=S)Nc1cccc2c1C(C)CC21CC1 (centres unmarked)
Completion: 3.06

----------
Field: logP. Provide a value for each of the compounds that follow.
Assay: log P by HPLC on reversed phase columns (EEC directive 79/831 Annex V.A8)
Type: physicochemical
Settings: Table 1, compounds of formula (I); method [a]: LC-MS at pH 2.7, 0.1% formic acid in water / acetonitrile

Prompt: Would you mind telling me what logP value was observed for CC1CC(C)c2c(NC(=O)c3cn(C)nc3C(F)F)cccc21 (stereo not drawn) [Example 7] ?
Completion: 3.04[a]

Prompt: # repeat for CCC1(C)CCc2c(NC(=O)c3cn(C)nc3C(F)F)cccc21 (stereo not drawn)
Completion: 3.62[a]

Prompt: # repeat for CC1CC(CC(C)(C)C)c2cccc(NC(=O)c3cn(C)nc3C(F)F)c21 (stereo not drawn)
Completion: 4.44[a]

Prompt: # repeat for Cc1nn(C)c(F)c1C(=O)Nc1cccc2c1C(C)CC2CC(C)(C)C (stereo not drawn)
Completion: 4.61[a]

Prompt: # repeat for CC1CC2(CCCCC2)c2cccc(NC(=O)c3cn(C)nc3C(F)F)c21 (stereo not drawn)
Completion: 4.2[a]

Prompt: # repeat for Cc1nn(C)c(Cl)c1C(=O)Nc1cccc2c1C(C)CC21CC1 (stereo not drawn)
Completion: 3.44[a]

Prompt: # repeat for CC1CC2(CC2(Cl)Cl)c2cccc(NC(=O)c3cn(C)nc3C(F)F)c21 (stereo not drawn) [Example 4]
Completion: 3.5[a]

Prompt: # repeat for CC1CC2(CC2)c2cccc(NC(=O)c3cn(C)nc3C(F)F)c21 (stereo not drawn)
Completion: 3.13[a]

Prompt: # repeat for CC1CC2(CC2)c2cccc(NC(=O)c3cn(C)nc3I)c21 (stereo not drawn)
Completion: 3.24[a]

Prompt: # repeat for `Cc1nn(C)c(C)c1C(=O)Nc1cccc2c1CCC21CC1`
Completion: 2.57[a]

Prompt: # repeat for `Cn1cc(C(=O)Nc2cccc3c2C(C)(C)CC3)c(C(F)F)n1`
Completion: 2.8[a]

Prompt: # repeat for Cn1cc(C(=O)Nc2cccc3c2CCC32CC2(Cl)Cl)c(C(F)F)n1 (stereo not drawn)
Completion: 3.33[a]

----------
Field: logP. Provide a value for each of the molecules that follow.
Experiment: log P by HPLC on reversed phase columns (EEC directive 79/831 Annex V.A8)
Type: physicochemical
Settings: Table 2, amines of formula (III-a); method [a]: LC-MS at pH 2.7, 0.1% formic acid in water / acetonitrile

Prompt: Would you mind telling me what logP value was observed for CC1CC(CC(C)(C)C)c2cccc(N)c21 (stereo not shown) ?
Completion: 3.83[a]

Prompt: # repeat for `CCON=C1CCc2c(N)cccc21.Cl`
Completion: 1.75[a]

Prompt: # repeat for `CCCON=C1CCc2c(N)cccc21.Cl`
Completion: 2.26[a]

Prompt: # repeat for CCON=C1CC(C)c2c(N)cccc21.Cl (stereo not shown)
Completion: 2.26[a]

Prompt: # repeat for CC(C)CC1CCc2c(N)cccc21 (stereo not shown)
Completion: 2.64[a]

Prompt: # repeat for `CCCCON=C1CCc2c(N)cccc21.Cl`
Completion: 2.86[a]

Prompt: # repeat for CON=C1CC(C)c2c(N)cccc21.Cl (stereo not shown)
Completion: 1.76[a]

Prompt: # repeat for CCC1(C)CCc2c(N)cccc21 (stereo not shown)
Completion: 1.88[a]

Prompt: # repeat for CC1CC(C(C)C)c2cccc(N)c21 (stereo not shown) [Example III-a-11]
Completion: 2.73[a]

Prompt: # repeat for `CON=C1CCc2c(N)cccc21.Cl`
Completion: 1.26[a]

----------
Experiment: log P by HPLC on reversed phase columns (EEC directive 79/831 Annex V.A8)
Assay type: physicochemical
Settings: Table 2, amines of formula (III-a); method [a]: LC-MS at pH 2.7, 0.1% formic acid in water / acetonitrile
assay-readout: logP

Prompt: Would you mind telling me what logP value was observed for CC1CC(C)c2c(N)cccc21 (stereo not drawn) [III-a-15] ?
Completion: 1.76[a]

Prompt: # repeat for CC(C)(C)C1CCc2c(N)cccc21 (stereo not drawn) [Example III-a-21]
Completion: 2.4[a]

Prompt: # repeat for CCCON=C1CC(C)c2c(N)cccc21.Cl (stereo not drawn) [Example III-a-18]
Completion: 2.78[a]

Prompt: # repeat for Nc1cccc2c1CCC21CC1 [Example III-a-2]
Completion: 1.37[a]

Prompt: # repeat for CC1CC(C(C)C)c2cccc(N)c21 (stereo not drawn) [Example III-a-12]
Completion: 2.86[a]

Prompt: # repeat for CC(C)CC1CC(C)c2c(N)cccc21 (stereo not drawn) [Example III-a-23]
Completion: 3.42[a]

----------
Test system: Puccinia recondita
Assay: In vivo preventive test on Puccinia recondita (brown rust on wheat)
Settings: 500 ppm, preventive spray, wheat plants, grading 12 days after contamination
Field: Eff. %. Provide a value for each of the compounds that follow.
# output: bare number, implied unit %

Prompt: Test system Puccinia recondita; read-out Eff. %; what value for CC1CC(C)c2c(NC(=O)c3cn(C)nc3C(F)F)cccc21 (centres unmarked) [Example 7] ?
Completion: 100

Prompt: # repeat for `Cc1nn(C)c(C)c1C(=O)Nc1cccc2c1CCC21CC1`
Completion: 89

Prompt: # repeat for CC1CC2(CC2)c2cccc(NC(=O)c3cn(C)nc3C(F)(F)F)c21 (centres unmarked)
Completion: 100

Prompt: # repeat for Cc1nn(C)c(F)c1C(=O)Nc1cccc2c1C(C)CC2CC(C)(C)C (centres unmarked)
Completion: 98

Prompt: # repeat for CC(C)CC1CC(C)c2c(NC(=O)c3cn(C)nc3C(F)F)cccc21 (centres unmarked)
Completion: 98

Prompt: # repeat for CC1CC2(CC2(Cl)Cl)c2cccc(NC(=O)c3cn(C)nc3C(F)F)c21 (centres unmarked) [Example 3]
Completion: 94

Prompt: # repeat for CC1CC(C)c2c(NC(=O)c3cn(C)nc3C(F)F)cccc21 (centres unmarked) [Example 8]
Completion: 100

Prompt: # repeat for CC1CCc2cccc(NC(=O)c3cn(C)nc3C(F)F)c21 (centres unmarked)
Completion: 100

Prompt: # repeat for Cc1nn(C)c(C)c1C(=S)Nc1cccc2c1C(C)CC2CC(C)C (centres unmarked)
Completion: 98

Prompt: # repeat for Cc1nn(C)c(F)c1C(=O)Nc1cccc2c1C(C)CC2CC(C)C (centres unmarked)
Completion: 100

Prompt: # repeat for CC(C)CC1CC(C)c2c(NC(=S)c3cn(C)nc3C(F)F)cccc21 (centres unmarked)
Completion: 100

Prompt: # repeat for CC1CC2(CC2)c2cccc(NC(=O)c3cn(C)nc3C(F)F)c21 (centres unmarked)
Completion: 100

Prompt: # repeat for `Cc1nn(C)c(F)c1C(=O)Nc1cccc2c1CCC21CC1`
Completion: 94

Prompt: # repeat for CC1CC2(CC2(Cl)Cl)c2cccc(NC(=O)c3cn(C)nc3C(F)F)c21 (centres unmarked) [Example 4]
Completion: 100

----------
Field: Eff. %. Provide a value for each of the compounds that follow.
Tested on: Botrytis cinerea
Experiment: In vivo preventive test on Botrytis cinerea (grey mould), gherkin
Conditions: 500 ppm, preventive spray, gherkin plants, grading 4 to 5 days after contamination
# output: bare number, implied unit %

Prompt: Would you mind telling me what Eff. % value was observed for CC1CC(C)c2c(NC(=O)c3cn(C)nc3C(F)F)cccc21 (stereo not shown) [Example 8] ?
Completion: 100

Prompt: # repeat for CC1CC2(CC2)c2cccc(NC(=O)c3cn(C)nc3C(F)F)c21 (stereo not shown)
Completion: 88

Prompt: # repeat for CC1CC(C)c2c(NC(=O)c3cn(C)nc3C(F)F)cccc21 (stereo not shown) [Example 7]
Completion: 100

Prompt: # repeat for CC(C)CC1CC(C)c2c(NC(=S)c3cn(C)nc3C(F)F)cccc21 (stereo not shown)
Completion: 73

----------
Field: Eff. %. Provide a value for each of the molecules that follow.
Test system: Puccinia recondita
Experiment: In vivo preventive test on Puccinia recondita (brown rust on wheat)
Details: 500 ppm, preventive spray, wheat plants, grading 12 days after contamination
Write the numeric value and append its unit.

Prompt: Would you mind telling me what Eff. % value was observed for CC1CC2(CC2)c2cccc(NC(=S)c3cn(C)nc3C(F)F)c21 (stereo not shown) ?
Completion: 83%

Prompt: # repeat for Cc1nn(C)c(C)c1C(=O)Nc1cccc2c1C(C)CC2C(C)(C)C (stereo not shown)
Completion: 98%

Prompt: # repeat for CCCON=C1CC(C)c2c(NC(=O)c3c(C)nn(C)c3F)cccc21 (stereo not shown)
Completion: 81%

Prompt: # repeat for CCON=C1CC(C)c2c(NC(=O)c3c(C)nn(C)c3F)cccc21 (stereo not shown)
Completion: 81%

Prompt: # repeat for CC1CC(C(C)C)c2cccc(NC(=O)c3cn(C)nc3C(F)F)c21 (stereo not shown) [Example 1]
Completion: 100%

Prompt: # repeat for CCC1(C)CCc2c(NC(=O)c3cn(C)nc3C(F)F)cccc21 (stereo not shown)
Completion: 98%

Prompt: # repeat for CC1CC(CC(C)(C)C)c2cccc(NC(=S)c3cn(C)nc3C(F)F)c21 (stereo not shown)
Completion: 98%

Prompt: # repeat for Cc1nn(C)c(F)c1C(=S)Nc1cccc2c1C(C)CC2CC(C)(C)C (stereo not shown)
Completion: 98%

Prompt: # repeat for `Cn1cc(C(=O)Nc2cccc3c2CCC32OCCO2)c(C(F)F)n1`
Completion: 83%

Prompt: # repeat for Cc1nn(C)c(C)c1C(=S)Nc1cccc2c1C(C)CC21CC1 (stereo not shown)
Completion: 89%

Prompt: # repeat for Cn1cc(C(=O)Nc2cccc3c2CCC3C(C)(C)C)c(C(F)F)n1 (stereo not shown)
Completion: 100%

Prompt: # repeat for `CON=C1CCc2c(NC(=O)c3cn(C)nc3C(F)F)cccc21`
Completion: 94%

Prompt: # repeat for CC(C)CC1CCc2c(NC(=O)c3cn(C)nc3C(F)F)cccc21 (stereo not shown)
Completion: 98%

Prompt: # repeat for `Cn1cc(C(=O)Nc2cccc3c2CCC32CC2)c(C(F)F)n1`
Completion: 98%

Prompt: # repeat for CC1CC2(CC2)c2cccc(NC(=S)c3cn(C)nc3C(F)(F)F)c21 (stereo not shown)
Completion: 100%

Prompt: # repeat for Cc1nn(C)c(C)c1C(=O)Nc1cccc2c1C(C)CC21CC1 (stereo not shown)
Completion: 81%

Prompt: # repeat for `CCCON=C1CCc2c(NC(=O)c3cn(C)nc3C(F)F)cccc21`
Completion: 71%

Prompt: # repeat for CC1CC(C(C)C)c2cccc(NC(=O)c3cn(C)nc3C(F)F)c21 (stereo not shown) [Example 6]
Completion: 100%

Prompt: # repeat for CON=C1CC(C)c2c(NC(=O)c3c(C)nn(C)c3F)cccc21 (stereo not shown)
Completion: 86%
